These data points were gathered from patent US20230250066A1.

system: Abutilon theophrasti (ABUTH); assay: Pre-emergence herbicidal test; type: in vivo; conditions: 1000 g/ha, evaluated after 13 days
parameter: percentage damage caused to the plant, five-point scale, ABUTH

Entry "CS(=O)(=O)c1cccc2c1c(=O)c(C(=O)O)nn2-c1ccc(Cl)cc1Cl" ; percentage damage caused to the plant, five-point scale, ABUTH = 0 (0=0%)

percentage damage caused to the plant, five-point scale, ABUTH reading for "CCOC(=O)c1nn(-c2ccc(OC(F)(F)F)cc2)c2cccc(SC3CC3)c2c1=O" : 0 (0=0%)

Continuing:
Entry under test: "CS(=O)(=O)c1cccc2c1c(=O)c(C(=O)O)nn2-c1ccc(Cl)cc1F" . Its percentage damage caused to the plant, five-point scale, ABUTH was 1 (1=10-20%)

# percentage damage caused to the plant, five-point scale, ABUTH of "C=C(Cl)COC(=O)c1nn(-c2ccc(OC(F)(F)F)cc2)c2cccc(S(C)(=O)=O)c2c1=O" = 0 (0=0%)

Memo: "CCCCCCCCSC(=O)c1nn(-c2ccc(OC(F)(F)F)cc2)c2cccc(S(C)(=O)=O)c2c1=O" , reported percentage damage caused to the plant, five-point scale, ABUTH: 0 (0=0%)

Lab book: percentage damage caused to the plant, five-point scale, ABUTH of "CCOC(=O)c1nn(-c2ccc(OC(F)(F)F)cc2)c2ccc(C#N)c(S(C)(=O)=O)c2c1=O" noted as 0 (0=0%)

Input "CCSc1cccc2c1c(=O)c(C(=O)O)nn2-c1ccc(OC(F)(F)F)cc1" . Output percentage damage caused to the plant, five-point scale, ABUTH: 0 (0=0%)

Input "C=CCOC(=O)c1nn(-c2ccc(OC(F)(F)F)cc2)c2cccc(S(C)(=O)=O)c2c1=O" . Output percentage damage caused to the plant, five-point scale, ABUTH: 0 (0=0%)

compound "CCOC(=O)c1nn(-c2ccc(OC(F)(F)F)cc2)c2ccc(CC(C)C)c(S(C)(=O)=O)c2c1=O" , percentage damage caused to the plant, five-point scale, ABUTH observed: 0 (0=0%)

The compound listed as "Cc1cc(S(C)(=O)=O)c2c(=O)c(C(=O)O)nn(-c3ccc(OC(F)(F)F)cc3)c2c1" shows percentage damage caused to the plant, five-point scale, ABUTH equal to 1 (1=10-20%)

Documented percentage damage caused to the plant, five-point scale, ABUTH of "COC(C)(C)CCOC(=O)c1nn(-c2ccc(OC(F)(F)F)cc2)c2cccc(S(C)(=O)=O)c2c1=O" : 0 (0=0%)

Briefly, percentage damage caused to the plant, five-point scale, ABUTH measured for O=C(O)c1nn(-c2ccc(OC(F)(F)F)cc2)c2cccc([S+]([O-])CC(F)(F)F)c2c1=O (stereo not shown) : 1 (1=10-20%)

Measured percentage damage caused to the plant, five-point scale, ABUTH, "CCOC(=O)c1nn(-c2ccc(OC(F)(F)F)cc2)c2ccc(Br)c(S(C)(=O)=O)c2c1=O" : 1 (1=10-20%)

Lab book: percentage damage caused to the plant, five-point scale, ABUTH of CCOC(=O)c1nn(-c2ccc(OC(F)(F)F)cc2)c2cccc([S+]([O-])C3CC3)c2c1=O (stereo not shown) noted as 0 (0=0%)

What the record says about "CCOC(=O)c1nn(-c2ccc(OC(F)(F)F)cc2)c2cc(C#N)cc(SC)c2c1=O" : percentage damage caused to the plant, five-point scale, ABUTH is 1 (1=10-20%)

The measured percentage damage caused to the plant, five-point scale, ABUTH associated with CCOC(=O)c1nn(-c2ccc(OC(F)(F)F)cc2)c2cccc([S+](C)[O-])c2c1=O (stereo not shown) reads 0 (0=0%)

Recorded percentage damage caused to the plant, five-point scale, ABUTH (compound "CS(=O)(=O)c1cccc2c1c(=O)c(C(=O)OCC(F)F)nn2-c1ccc(OC(F)(F)F)cc1" ): 0 (0=0%)

The recorded percentage damage caused to the plant, five-point scale, ABUTH for entry "COCCCOC(=O)c1nn(-c2ccc(OC(F)(F)F)cc2)c2cccc(S(C)(=O)=O)c2c1=O" equals 0 (0=0%)

Entry "CCOC(=O)c1nn(-c2ccc(OC(F)(F)F)cc2)c2cc(C)cc(S(C)(=O)=O)c2c1=O" , percentage damage caused to the plant, five-point scale, ABUTH reported as 1 (1=10-20%)

Reported percentage damage caused to the plant, five-point scale, ABUTH ( "CS(=O)(=O)c1cccc2c1c(=O)c(C(=O)OCCCl)nn2-c1ccc(OC(F)(F)F)cc1" ) = 0 (0=0%)

Sure, the documented percentage damage caused to the plant, five-point scale, ABUTH for "C#CCOC(=O)c1nn(-c2ccc(OC(F)(F)F)cc2)c2cccc(S(C)(=O)=O)c2c1=O" is 0 (0=0%)

Value of measured percentage damage caused to the plant, five-point scale, ABUTH for the entry "CC(C)Cc1ccc2c(c1S(C)(=O)=O)c(=O)c(C(=O)O)nn2-c1ccc(OC(F)(F)F)cc1" : 1 (1=10-20%)

* * *

percentage damage caused to the plant, five-point scale, ABUTH values for the molecules below.
test system: Abutilon theophrasti (ABUTH); test: Pre-emergence herbicidal test; assay type: in vivo; settings: 1000 g/ha, evaluated after 13 days

The cases that follow already have their percentage damage caused to the plant, five-point scale, ABUTH on record.
The value of percentage damage caused to the plant, five-point scale, ABUTH measured for the molecule "CCCCCCOC(=O)c1nn(-c2ccc(OC(F)(F)F)cc2)c2cccc(S(C)(=O)=O)c2c1=O" turned out to be 3 (3=41-60%)

Reported percentage damage caused to the plant, five-point scale, ABUTH for "COC(=O)c1nn(-c2ccc(OC(F)(F)F)cc2)c2cc(OC)cc(SC)c2c1=O" was 0 (0=0%)

Reported percentage damage caused to the plant, five-point scale, ABUTH for "CN(C)CCOC(=O)c1nn(-c2ccc(OC(F)(F)F)cc2)c2cccc(S(C)(=O)=O)c2c1=O" was 1 (1=10-20%)

The molecule listed as "CS(=O)(=O)c1cccc2c1c(=O)c(C(=O)OCCCCOCc1ccccc1)nn2-c1ccc(OC(F)(F)F)cc1" shows percentage damage caused to the plant, five-point scale, ABUTH equal to 0 (0=0%)

Field percentage damage caused to the plant, five-point scale, ABUTH (entry "CS(=O)(=O)c1cccc2c1c(=O)c(C(=O)OCCCCCCCCCc1ccccc1)nn2-c1ccc(OC(F)(F)F)cc1" ) reads 0 (0=0%)

Lookup result for "CS(=O)(=O)c1cccc2c1c(=O)c(C(=O)OCCC1CCCCC1)nn2-c1ccc(OC(F)(F)F)cc1" ; measured percentage damage caused to the plant, five-point scale, ABUTH: 1 (1=10-20%)

Proceed to the following item.
Briefly, percentage damage caused to the plant, five-point scale, ABUTH measured for "CC(C)OC(=O)c1nn(-c2ccc(OC(F)(F)F)cc2)c2cccc(S(C)(=O)=O)c2c1=O" : 1 (1=10-20%)

* * *

Tested on: Amaranthus retoflexus (AMARE)
Assay: Post-emergence herbicidal test
Assay type: in vivo
Conditions: 1000 g/ha unless otherwise stated, evaluated after 13 days
Method: Seeds of a variety of test species are sown in standard soil in pots (Amaranthus retoflexus (AMARE), Solanum nigrum (SOLNI), Setaria faberi (SETFA), Lolium perenne (LOLPE), Echinochloa crus-galli (ECHCG), Ipomoea hederacea (IPOHE), Abutilon theophrasti (ABUTH), Zea mays (ZEAMX)). […] After 13 days the test is evaluated for the percentage damage caused to the plant. […]
This section presents compounds with their documented percentage damage caused to the plant, AMARE (five-point scale) values.

A selection of reference data follows.
Looking up "CCCCCOC(=O)c1nn(-c2ccc(OC(F)(F)F)cc2)c2cccc(S(C)(=O)=O)c2c1=O" , I see its percentage damage caused to the plant, AMARE (five-point scale) listed as 0 (0=0%)

Lab note: "CS(=O)(=O)c1cccc2c1c(=O)c(C(=O)OCC(F)F)nn2-c1ccc(OC(F)(F)F)cc1" gave percentage damage caused to the plant, AMARE (five-point scale) of 1 (1=10-20%)

GET /value?item= "CCOC(=O)c1nn(-c2ccc(Cl)cc2Cl)c2cccc(S(C)(=O)=O)c2c1=O" &field=percentage damage caused to the plant, AMARE (five-point scale) returns 1 (1=10-20%)

// percentage damage caused to the plant, AMARE (five-point scale) value for "CCSc1cccc2c1c(=O)c(C(=O)O)nn2-c1ccc(OC(F)(F)F)cc1" : 0 (0=0%)

// percentage damage caused to the plant, AMARE (five-point scale) lookup, compound = "CCOC(=O)c1nn(-c2ccc(OC(F)(F)F)cc2)c2ccc(CC(C)C)c(S(C)(=O)=O)c2c1=O" , result: 0 (0=0%)

Per the record, O=C(O)c1nn(-c2ccc(OC(F)(F)F)cc2)c2cccc([S+]([O-])CC(F)(F)F)c2c1=O (stereo not shown) has percentage damage caused to the plant, AMARE (five-point scale) of 0 (0=0%)

// percentage damage caused to the plant, AMARE (five-point scale) value for "CS(=O)(=O)c1cc(F)cc2c1c(=O)c(C(=O)O)nn2-c1ccc(OC(F)(F)F)cc1" : 0 (0=0%)

The value of percentage damage caused to the plant, AMARE (five-point scale) measured for the compound "C#CCCOC(=O)c1nn(-c2ccc(OC(F)(F)F)cc2)c2cccc(S(C)(=O)=O)c2c1=O" turned out to be 0 (0=0%)

Continuing:
Looking up "CS(=O)(=O)c1cccc2c1c(=O)c(C(=O)O)nn2-c1ccc(Cl)cc1" , I see its percentage damage caused to the plant, AMARE (five-point scale) listed as 1 (1=10-20%)

The compound listed as "C#CCOC(=O)c1nn(-c2ccc(OC(F)(F)F)cc2)c2cccc(S(C)(=O)=O)c2c1=O" has a reported percentage damage caused to the plant, AMARE (five-point scale) of 0 (0=0%)

// percentage damage caused to the plant, AMARE (five-point scale) lookup, compound = "CS(=O)(=O)c1c(Br)ccc2c1c(=O)c(C(=O)O)nn2-c1ccc(OC(F)(F)F)cc1" , result: 1 (1=10-20%)

Reported percentage damage caused to the plant, AMARE (five-point scale) of "CS(=O)(=O)c1cccc2c1c(=O)c(C(=O)OCCC1CCCCC1)nn2-c1ccc(OC(F)(F)F)cc1" : 1 (1=10-20%)

The reported percentage damage caused to the plant, AMARE (five-point scale) of the compound "CCOC(=O)c1nn(-c2ccc(OC(F)(F)F)cc2)c2cccc(SCC)c2c1=O" was 0 (0=0%)

Entry under test: "CCOC(=O)c1nn(-c2ccc(OC(F)(F)F)cc2)c2cccc(S(=O)(=O)C3CC3)c2c1=O" . Its percentage damage caused to the plant, AMARE (five-point scale) was 0 (0=0%)

Data point: "CS(=O)(=O)c1cccc2c1c(=O)c(C(=O)OCCCCCCCCCc1ccccc1)nn2-c1ccc(OC(F)(F)F)cc1" ; percentage damage caused to the plant, AMARE (five-point scale) = 0 (0=0%)

Per the records, this compound ( "COC(=O)c1nn(-c2ccc(OC(F)(F)F)cc2)c2cccc(S(C)(=O)=O)c2c1=O" ) has percentage damage caused to the plant, AMARE (five-point scale) equal to 1 (1=10-20%)
